Origin of values: PubChem BioAssay (NCI)

Provide the reported TGI of each item.
Test system: CAKI-1 renal
Assay: NCI tumour cell line growth inhibition, 48 h

Provide measured TGI value, entry: `COc1ccc(-c2nc(-c3cc(OC)cc(OC)c3)[nH]c2-c2ccc(OC)cc2)cc1`
> 100 µM

Provide measured TGI value, entry: `Nc1ccc(-c2nc3ccccc3s2)cc1C(F)(F)F`
28.7 µM

Provide measured TGI value, entry: `CCCCNC(=S)N/N=C/c1cccc(C)n1`
87.8 µM

Provide measured TGI value, entry: CC(=O)N1CCN(c2ccc(OCC3COC(Cn4ccnc4)(c4ccc(Cl)cc4Cl)O3)cc2)CC1 (stereo not drawn)
> 100 µM

Provide measured TGI value, entry: N#CC(N=Nc1ccc(Cl)cc1)c1nc2ccccc2o1 (stereo not drawn)
> 100 µM

Provide measured TGI value, entry: `CCN1c2ccccc2-c2c3c1cc(C)cc3c1ccccc1[n+]2CC`
5.88 µM

Provide measured TGI value, entry: `COc1cc2c(Nc3cc(Cl)c(OC)c(Cl)c3)c(C#N)cnc2cc1OCCCN1CCN(C)CC1`
15.1 µM

Provide measured TGI value, entry: `NCCNCC1CCNCC1`
> 100 µM

Provide measured TGI value, entry: `CC(C)c1[nH]nc2c1N=C(c1ccccc1Cl)c1cc([N+](=O)[O-])ccc1N2`
> 13.7 µM

Provide measured TGI value, entry: `O=C(O)C(SC1=NNC2(C(=O)N1)c1ccccc1-c1ccccc12)SC1=NNC2(C(=O)N1)c1ccccc1-c1ccccc12`
> 10 µM

Provide measured TGI value, entry: `COC(c1ccc(C(C)(C)C)cc1)(c1ccc(C(C)(C)C)cc1)c1ccc(C(C)(C)C)cc1`
> 100 µM

Provide measured TGI value, entry: `ClCCN(CCCl)c1ccc(CNc2ccccc2)cc1`
> 100 µM

Provide measured TGI value, entry: `O=c1[nH]cnc2c1ncn2[C@@H]1C[C@@H]1CO`
> 100 µM

Provide measured TGI value, entry: O=C1CC(C(O)(C(F)(F)F)C(F)(F)Cl)CCC1C(O)(C(F)(F)F)C(F)(F)Cl (stereo not drawn)
> 10 µM

Provide measured TGI value, entry: O=C(CNc1c(Cl)cccc1Cl)NC1C=Cc2ccc(S(=O)(=O)Nc3c(Cl)cccc3Cl)cc2C1=O (stereo not drawn)
> 100 µM

Provide measured TGI value, entry: `Cc1ccc([N+](=O)[O-])cc1N=NC(=O)NNc1cc([N+](=O)[O-])ccc1C`
66.8 µM

Provide measured TGI value, entry: `COc1ccc(-c2nn(-c3cccc(Cl)c3)cc2-c2cc(-c3ccccc3)[nH]c(=O)c2C#N)cc1`
6.09 µM

Provide measured TGI value, entry: `Nc1nc(-c2ccc(Cl)c([N+](=O)[O-])c2)cs1`
> 100 µM

Provide measured TGI value, entry: `NC(=O)C(=O)CC(=O)c1ccccc1NC1=CC(=O)C(=O)c2ccccc21`
> 100 µM

Provide measured TGI value, entry: CC(O)CCCOC(c1ccccc1)(c1ccccc1)c1ccccc1 (stereo not drawn)
29.9 µM

Provide measured TGI value, entry: `C=CC(=O)N1CN(C(=O)C=C)CN(C(=O)C=C)C1`
3.7 µM

Provide measured TGI value, entry: CC(=O)Oc1cc(C(F)(F)F)ccc1C(=O)OC1(C)OC(=O)c2ccc(C(F)(F)F)cc2O1 (stereo not drawn)
> 100 µM

Provide measured TGI value, entry: Cc1ccc(C)c(N2C/C(=N\NC(=O)CC#N)C(c3nc4ccccc4s3)C(=O)C2=O)c1 (stereo not drawn)
> 100 µM

Provide measured TGI value, entry: O=c1[nH]cnc(NC2C=C(CO)C(O)C2O)c1[N+](=O)[O-] (stereo not drawn)
> 100 µM

Provide measured TGI value, entry: `COc1ccc(-c2cnnn2-c2nonc2-n2cccc2)cc1`
> 67.1 µM

Provide measured TGI value, entry: `O=C1Nc2ccccc2/C1=C1\CCc2cc(O)ccc21`
> 25 µM

Provide measured TGI value, entry: CC(C(=O)c1ccc(Cl)cc1)/C(=N/NC(=O)NN)C(=O)Nc1cccc(C(F)(F)F)c1 (stereo not drawn)
> 100 µM

Provide measured TGI value, entry: `O=C(O)c1cc(-c2ccc3c(O)c(O)ccc3c2)ccc1O`
25.6 µM

Provide measured TGI value, entry: O=C(CN(c1ccccc1)c1ccccc1)N1c2ccccc2C2C=CC=CC21 (stereo not drawn)
32.2 µM

Provide measured TGI value, entry: `C[C@@H]1S[C@H](c2ccccc2F)N2Cc3ccccc3N=C12`
> 100 µM

Provide measured TGI value, entry: `Cc1cc(N/N=C/c2ccccn2)nc2ccccc12`
2.59 µM

Provide measured TGI value, entry: CC12CCC3C(CCC4CC(OC(=O)Cc5ccc(N(CCCl)CCCl)cc5)CCC43C)C1CCC(=O)N2 (stereo not drawn)
29.5 µM

Provide measured TGI value, entry: `CN(C(=O)c1ccc([N+](=O)[O-])cc1)c1ccccc1`
> 100 µM
